Target: T1, human nectin-4 protein expressed on the surface of cells (human, UniProt Q96NY8 32-510)
T1 sequence: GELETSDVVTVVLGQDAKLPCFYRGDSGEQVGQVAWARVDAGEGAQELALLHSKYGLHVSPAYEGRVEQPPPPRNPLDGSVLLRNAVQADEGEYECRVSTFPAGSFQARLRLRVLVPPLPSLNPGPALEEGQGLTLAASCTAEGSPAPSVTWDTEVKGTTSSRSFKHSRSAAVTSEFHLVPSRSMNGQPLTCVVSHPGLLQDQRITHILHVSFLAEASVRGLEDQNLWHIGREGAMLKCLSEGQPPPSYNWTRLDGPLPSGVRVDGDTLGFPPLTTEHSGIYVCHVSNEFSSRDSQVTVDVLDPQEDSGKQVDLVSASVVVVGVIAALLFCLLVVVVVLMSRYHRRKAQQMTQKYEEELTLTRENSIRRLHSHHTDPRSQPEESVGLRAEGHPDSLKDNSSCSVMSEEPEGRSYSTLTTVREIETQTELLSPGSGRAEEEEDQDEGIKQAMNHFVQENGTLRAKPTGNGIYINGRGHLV
Assay: cell-based or functional assay
Listing of entries alongside the reported Cell kill IC50, SKBR3.

{"columns": ["binder", "Cell kill IC50, SKBR3"],
 "data": [
  ["Nectin-4 5D9 VH2/VL2 (antibody, V domains shown, Humanized; also called 5D9 VH variant 2 / 5D9 VL variant 2) VH: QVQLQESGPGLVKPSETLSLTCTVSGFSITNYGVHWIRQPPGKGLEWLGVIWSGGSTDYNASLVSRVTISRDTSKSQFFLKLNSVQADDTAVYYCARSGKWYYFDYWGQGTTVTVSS VL: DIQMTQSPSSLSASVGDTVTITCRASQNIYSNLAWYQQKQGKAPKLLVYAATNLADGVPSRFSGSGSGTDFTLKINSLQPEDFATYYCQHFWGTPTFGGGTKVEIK", "14.4 nM"],
  ["Nectin-4 5D9 VH4/VL3 (antibody, V domains shown, Humanized; also called 5D9 VH variant 4 / 5D9 VL variant 3) VH: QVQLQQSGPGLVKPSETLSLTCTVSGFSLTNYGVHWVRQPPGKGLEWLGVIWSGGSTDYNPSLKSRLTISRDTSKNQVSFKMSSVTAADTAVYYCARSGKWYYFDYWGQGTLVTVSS VL: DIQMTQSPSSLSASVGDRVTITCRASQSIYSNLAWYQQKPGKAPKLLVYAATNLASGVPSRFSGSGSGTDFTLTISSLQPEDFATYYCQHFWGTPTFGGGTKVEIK", "6.46 nM"],
  ["Nectin-4 5D9 VH5/VL4 (antibody, V domains shown, Humanized; also called 5D9 VH variant 5 / 5D9 VL variant 4) VH: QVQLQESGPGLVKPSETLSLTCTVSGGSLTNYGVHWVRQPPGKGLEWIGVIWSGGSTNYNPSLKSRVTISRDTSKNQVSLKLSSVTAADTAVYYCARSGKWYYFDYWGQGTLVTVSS VL: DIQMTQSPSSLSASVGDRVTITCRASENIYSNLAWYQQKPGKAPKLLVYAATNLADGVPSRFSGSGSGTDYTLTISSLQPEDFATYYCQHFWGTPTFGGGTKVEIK", "9.53 nM"]
]}
